- system name: Glucose transporter (Leishmania mexicana)
- measurement notes: ST_JUDE_LEISH: Cytotoxicity at 2uM final concentration against transgenic Leishmania Mexicana promastigotes LmGT2 that are glucose transport deficient and complemented with the L. Mexicana glucose transporter 2. Activity is measured by DNA content using SYBR green in vitro
- Assay type: functional
readout label: inhibition (%)
Reply with just the number (in %).

Previously resolved entries follow.
{"compound": "N#CC(c1ccc(Cl)cc1)c1ccc2c(C(F)(F)F)cc(C(F)(F)F)nc2n1 (centres undefined)", "system name": "Glucose transporter (Leishmania mexicana)", "endpoint unit": "%", "inhibition": 0.92}
{"compound": "CC(C)CN1C(=O)C(c2ccc(F)c(F)c2)=C(O)C1c1ccccc1 (centres undefined)", "system name": "Glucose transporter (Leishmania mexicana)", "endpoint unit": "%", "inhibition": -7.87}
{"compound": "CCNc1cc(C(=O)N[C@@H](Cc2ccccc2)[C@H](O)CNC(C)(C)Cc2ccccc2)cc(N2CCCC2=O)c1", "system name": "Glucose transporter (Leishmania mexicana)", "endpoint unit": "%", "inhibition": 0.81}
{"compound": "COc1cccc(C=Cc2nc(=O)c3ccccc3o2)c1OC", "system name": "Glucose transporter (Leishmania mexicana)", "endpoint unit": "%", "inhibition": 0.45}
{"compound": "CC(C)(C)c1nn(-c2ccc(Cl)cc2)c2[nH]c(=O)c(CNCc3cccs3)cc12", "system name": "Glucose transporter (Leishmania mexicana)", "endpoint unit": "%", "inhibition": 2.34}
{"compound": "O=C(Nc1ccc(F)cc1)c1nc2ccccc2nc1Cl", "system name": "Glucose transporter (Leishmania mexicana)", "endpoint unit": "%", "inhibition": 4.22}

input: Requested read-out: inhibition. Entry: `COc1ccc(C=NN=c2cc(C)[nH]c3ccccc23)cc1OC`
output: 2.8

input: Quick one: inhibition for `O=C1c2ccc([N+](=O)[O-])cc2C(=O)N1c1ccc2[nH]ncc2c1` ?
output: 0.95

input: Give its inhibition value. Item: `COc1ccc(-n2nc(C)cc2C(=O)NCc2ccc(-c3c(C)noc3C)cc2)cc1`
output: -0.58

input: Please give the measured inhibition for this compound: `COc1ccc(CNc2ncnc3c2[nH]c2ccc(F)cc23)cc1`
output: 4.52

input: Which inhibition reading was recorded for the compound `CCC/C=C/c1c(CNCCCNc2cc(=O)c3ccccc3[nH]2)sc(CC)c1Br` ?
output: 0.32

###

- system name: Solute carrier family 2, facilitated glucose transporter member 1 (Homo sapiens) (UniProt P11166)
- Sequence (P11166 whole entry): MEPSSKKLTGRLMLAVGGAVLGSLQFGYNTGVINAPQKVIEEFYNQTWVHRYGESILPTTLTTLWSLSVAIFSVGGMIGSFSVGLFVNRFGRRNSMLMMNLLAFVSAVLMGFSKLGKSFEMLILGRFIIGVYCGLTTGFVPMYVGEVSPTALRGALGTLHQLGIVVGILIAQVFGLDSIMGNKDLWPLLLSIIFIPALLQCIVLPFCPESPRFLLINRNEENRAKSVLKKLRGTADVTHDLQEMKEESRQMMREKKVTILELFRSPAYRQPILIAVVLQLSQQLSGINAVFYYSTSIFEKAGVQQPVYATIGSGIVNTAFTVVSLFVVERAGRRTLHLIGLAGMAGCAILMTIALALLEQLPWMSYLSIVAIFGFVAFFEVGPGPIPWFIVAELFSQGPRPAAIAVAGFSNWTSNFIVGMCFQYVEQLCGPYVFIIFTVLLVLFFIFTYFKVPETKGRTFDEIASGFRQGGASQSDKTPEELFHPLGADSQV
- measurement notes: ST_JUDE_LEISH: Cytotoxicity at 2uM final concentration against transgenic Leishmania Mexicana promastigotes LmGLUT1 that are glucose transport deficient and complemented with the human glucose transporter GLUT1. Activity is measured by DNA content using SYBR green in vitro
- Type: functional
Listed below: inhibition values for each entry.
The figure you give is taken to be in %; do not add the unit.

Take a look at these entries with their results.
{"compound": "O=[N+]([O-])c1ccc2nccnc2c1", "endpoint unit": "%", "inhibition": 6.19}
{"compound": "Cc1cc(Nc2cccc(C(F)(F)F)c2)nc(N)n1", "endpoint unit": "%", "inhibition": 0.43}
{"compound": "COc1ccc2ncc(Cl)c([C@@H](O)CN3CCC(NCc4cc5c(cn4)OCCO5)CC3)c2c1", "endpoint unit": "%", "inhibition": 9.54}
{"compound": "Cc1cnc(CNCc2ccc(S(=O)(=O)Nc3ccc(Oc4cccc(Cl)c4)cc3)cc2)cn1", "endpoint unit": "%", "inhibition": 5.34}
{"compound": "CS(=O)(=O)c1ccccc1CNC(=O)c1cccc(-c2ccc(-c3nc4cc(C(F)(F)F)ccc4[nH]3)cc2)c1", "endpoint unit": "%", "inhibition": 2.38}

input: Data request, read-out inhibition, for Cn1cncc1C(=O)NC1CCN(c2ccnc(Nc3ccc(F)cc3)n2)C1 (centres undefined)
output: 0.07

input: I have this compound here, `CC1(C)Cc2c([nH]c3ccccc23)C(CCCCCCCCC2=NC(C)(C)Cc3c2[nH]c2ccccc32)=N1` , and I need its recorded inhibition.
output: 8.46

input: Which value of inhibition has been reported for `Cc1ccc(CN(Cc2ccc(C(=O)N(C)C)cc2)Cc2ccc3c(c2)OCCO3)cc1C` in the records?
output: 0.09

input: Which inhibition value is on record for CCc1ccc(CNCC(CCNc2cc(=O)c3ccccc3[nH]2)NCc2cc(Br)cc(Br)c2)o1 (centres undefined) ?
output: -1.12

input: Request the reported inhibition associated with c1cc2[nH]c(CCc3nc4cc(C5=NC6CCCCC6N5)ccc4[nH]3)nc2cc1C1=NC2CCCCC2N1 (centres undefined)
output: 19.7

input: # get_value(readout='inhibition', item= `Cc1cc(NCCC(=O)NCCc2ccccc2)nc(NCCc2ccc(F)cc2)n1` )
output: 2.76

input: Please report the recorded inhibition for `COc1ccc(CNCc2ccc(-c3ccc(-c4nc5cccc(C)c5[nH]4)cc3)cc2)cc1` .
output: 18.1

input: Item under review: `O=C(/C=C/c1ccc(Cl)cc1Cl)N1CCC(CCN2CCC(c3c[nH]c4ccccc34)CC2)CC1` . Reported inhibition?
output: 3.54

input: Item under review: `Cc1csc(NC(=O)c2cn(-c3ccccc3)nc2-c2cccs2)n1` . Reported inhibition?
output: 6.04

input: // query inhibition value for entry `CS(=O)(=O)c1ccc(OCCCN(Cc2ccccc2C(F)(F)F)c2ccc(C#N)c(C(F)(F)F)c2)cc1`
output: 1.51

input: Name the reported inhibition value associated with the compound CC(=O)c1ccc2c(c1)C(NC(=O)c1cccc(Cl)c1Cl)C(CO)C(C)(C)O2 (centres undefined)
output: 1.76

###

- system name: Hexose transporter 1 (Plasmodium falciparum) (UniProt O97467)
- measurement notes: ST_JUDE_LEISH: Cytotoxicity at 2uM final concentration against transgenic Leishmania Mexicana promastigotes LmPfHT that are glucose transport deficient and complemented with the Plasmodium falciparum hexose transporter. Activity is measured by DNA content using SYBR green in vitro
- Format: functional
# Lookup of reported inhibition keyed by entry
Your answer should be a plain number; it is taken to be in %.

// solved cases for inhibition follow
{"smiles code": "Cc1cccc2nc(-c3ccc(-c4ccc(NC(=O)CN5CCN(C)CC5)cc4)cc3)[nH]c12", "system name": "Hexose transporter 1 (Plasmodium falciparum) (UniProt O97467)", "inhibition, %": 1.8}
{"smiles code": "O=C(NC1CC1)c1cnc(N2CCC(Cc3ccccc3)CC2)c(Cl)c1", "system name": "Hexose transporter 1 (Plasmodium falciparum) (UniProt O97467)", "inhibition, %": -0.08}
{"smiles code": "NS(=O)(=O)c1cncc(-c2ccc3nccc(-c4cn[nH]c4)c3n2)c1", "system name": "Hexose transporter 1 (Plasmodium falciparum) (UniProt O97467)", "inhibition, %": 7.77}

input: Recorded inhibition for `CCNc1cc(C(=O)N[C@@H](Cc2ccccc2)[C@H](O)CNC(C)(C)c2cccc(OC)c2)cc(N2CCCC2=O)c1` , please?
output: 1.76

input: Sample `COc1ccc2nccc([C@@H](O)CN3CCC(NCCOc4ccccc4[N+](=O)[O-])CC3)c2c1` — what was its inhibition?
output: 2.26

###

- system name: Glucose transporter (Leishmania mexicana) (UniProt O61059)
- measurement notes: ST_JUDE_LEISH: Cytotoxicity at 2uM final concentration against transgenic Leishmania Mexicana promastigotes LmGT2 that are glucose transport deficient and complemented with the L. Mexicana glucose transporter 2. Activity is measured by DNA content using SYBR green in vitro
- Type: functional
# Lookup of reported inhibition keyed by entry
Quick note: give the figure in %, leave out the unit.

{"smiles code": "Cc1nc(N)nc(N)c1OCCCOc1ccccc1Br", "inhibition, %": 43.6}
{"smiles code": "O=C(Nc1ccccc1O)c1ccc(Oc2cccc(C(=O)Nc3ccccc3O)c2)cc1", "inhibition, %": 1.13}
{"smiles code": "COc1ccc(Cn2c(=O)[nH]c3cc(C(=O)NC4CCN(Cc5ccccc5)CC4)ccc3c2=O)cc1", "inhibition, %": 2.59}
{"smiles code": "O=c1cc(NCCCCNCc2ccc(Br)c(Br)c2)[nH]c2ccccc12", "inhibition, %": -4.13}

Continue with the next molecule.
input: Notebook: pull reported inhibition for Glucose transporter (Leishmania mexicana) (UniProt O61059), entry `COc1ccc(/C=C/C(=O)NCCCCCN2CCC(c3c[nH]c4ccccc34)CC2)cc1O`
output: 7.57

###

- system name: Hexose transporter 1 (Plasmodium falciparum) (UniProt O97467)
- measurement notes: ST_JUDE_LEISH: Cytotoxicity at 2uM final concentration against transgenic Leishmania Mexicana promastigotes LmPfHT that are glucose transport deficient and complemented with the Plasmodium falciparum hexose transporter. Activity is measured by DNA content using SYBR green in vitro
- Type: functional
Measured inhibition of individual entries
Give the quantity in %, number only.

input: I would be grateful if you could share the reported inhibition for Cc1cccc2nc(-c3cccc(-c4cccc(NC(=O)C(C)CN5CCN(C)CC5)c4)c3)[nH]c12 (stereo not given) .
output: 1.44

input: Fill in: inhibition of `CCCCCN1CCN(Cc2cccc(NC(=O)c3ccc(Cl)c(Cl)c3)c2)CC1` is ___
output: 1.08

input: Item under review: `Cn1nc(-c2cccc(CN[C@@H]3CCc4ccc(O)cc43)c2)c2cnc(NCCCN3CCCC3)nc21` . Reported inhibition?
output: 4.83

input: Would you kindly share the measured inhibition for CC(C)(C)NCC(O)COc1ccc(Cl)cc1C1=NNC(=O)CC1 (stereo not given) ?
output: 1.45

input: // inhibition lookup, key: `Cc1ccc(O)cc1Nc1ccnc2ccc(C(C)(C)C)cc12`
output: -2.63
